Assay: protease stability score; higher = more stable; yeast display proteolysis, trypsin and chymotrypsin;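 also: relative to predicted unfolded state with 0 unfolded-like and 1 meaning tenfold more protease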
Threshold check on protease stability score: at or above 0.9 gives label 1, strictly below gives label 0.

* DEDDKKAEDFANVIAHNLMTGDEEKHNKMIDPNVKIFINGQTVHGRDEFSKVMRRYKNLRIDWEVEELEIVNGQVRLKGHLHVEVNGVETRIDTHIVVTKVNGRWHMKEIYYH | label 1
* DEHEEMVRIFIKLFIHNSHTGNEEELTRMADPHTKVDVNGKEYIGREEWRRFFMELGVDHVEVRRVHVQGEKAEVDLELNIDGRVIRFHIYTLKINGKWIIKSLEVR | label 1
* DHDEHDADRAVKWFLEDLRTGDEQLNERQADPHVRNDFNGVEIHGREEFLKHLSKLSNELGIKHLHVRHHRVYDGRLELHIELRFDGKTITLIIIKLKVNGRWYVESMHVH | label 0
* HEELELRRRVLENWTKNMITGNEEETKKLADPNVRIDIDGVELHGMDIWYEYMRHIRIKIQHIERKDVKDYDGKVEVDADSHVEMEVNGKLTSTRRKLIFIHLKVDGRWVIHSISFH | label 0
* DDVHEDATRAIKILKHNLETGDEDKLMTMMDPNVRFEDGNKHAHGREQTVQVLLEIIEKLGVSKFSHEIKDLKIVDGKLHLHGTLKVDGKTVDLEVVSLKINGRWLIKSIHLH | label 1

====

Experiment: protease stability score; higher = more stable; yeast display proteolysis, trypsin and chymotrypsin;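 also: relative to predicted unfolded state with 0 unfolded-like and 1 meaning tenfold more protease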
Property: protease stability score; scope: individual sequences
READOUT KIND: protease stability score

- DELEKDLKDAFRILIEEVKTGDFKSMRRNMDPDARIDIGDKHSVGREEAIHLMEIFYKEWRFEHIDLHDFTLIGNKLELDMRVHGNVDGVRTIVIRRVISEKIDGRWLIRTESIE: 0.494
- DQEHEDARNVLHLLIRSWRTGDEHTSEHLMDPDVKIIYNGRVHVGREDAHRFVEEARVHHIVLHDSRVQGDYIRLDIRVEGEINGRRDRTEVDMVVLKINGRWMIQSIKFK: 1.38
- SEEERFVEEMLRHFLTNFLTGDWDKVAKLADPDTRSLIGDKHSHGRERVIDVLTYVVEEWRWKEFRVHRTTSIGEKAHSDTETDGNYNGVDVRSRSYIHFEVVNGRMSQIHLIFV: 0.694

====

Property: protease stability score; scope: individual sequences
Experiment: protease stability score; higher = more stable; yeast display proteolysis, trypsin and chymotrypsin;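 also: relative to predicted unfolded state with 0 unfolded-like and 1 meaning tenfold more protease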
READOUT KIND: protease stability score

• SETEKELHEFFRLWIQLFLTGDFDELKHYIDPNVRSVINGRQLIGMEEVWRWREEARIKDIEIKDVRVQGDKIEADGVLEGTINGVDRRTDTHIQLNVVNGVAKHTFIRIR = 1.45
• DEHEEQVRRFLHHLWRSVQTGDEHELANNFDPNTRVDVGDKHLHGMERFVYLIFEFARHWRIRHTTLHFIVRIGEFIEVDHILDGEIDGRRREVKMTIIIFKVDGRWIIRSMEVK = 1.82
• TEDEKFVEEFTRLIMHSFRTGDWELFEHLLDPDTRIEQGDWERIGMEEAIRLLHKVVHEMRVTHTDLKSITVIDGRIEIDARVHLEFNGQSVTYTQLILSIKIDGRWVLKSVHFH = 1.87
• DEIYEDIKHIVDLLSHAHETGDEHELKHLADPNVKWIINGVELVGWEDFRKLLEHLRHKRVHMDPRDVKRQGDYIHVTAELRFTGVFNGREREETFEVHLHMKKVNGRWLLTSVRVK = 1.48
• DEDEEMMEHLIRILVEVLKTGDWKELLKLADPHVRQDVNGVDIHGREDVSRRLANQAKELRLELHLQDVKVWNGRVDFDSRLHINQGEKYVQLHVRIITEKIDGRWRITEIHVR = 1.62
• DELKRYLEELVRRVLQATLTGDEDHFSHLADPTTRLILEDEDHHVENHGREDVRRFMEEHFRRVDHWHISLRRLHPVGNKMHSTGTLRVTFDGVKVDVEVRNHFVMVDGRIKFWKIEFI = 1.23
• DERQHHAENFHELFFRWVETGDWENQRELADPNMRVDLVVNGVELHDHGMDSFTKRLHELRLHHLDIRSVHYVNGRIDSDIRVDGVIDGRRIDTHMRLHLRVINGKMREIRIQID = 1.33
• SEEHETMNKLASDLIHDWLTGDWENTKELLDPHVKIDERVNGKNHQHHGREELVRILRERHEKIKGLRISIHHWEVINGRLHMDLRLHINGKTFSVEIHITIVDGRVKHIHVDIN = 1.22
• DELKKILDEYIEDHLRAVHTGDEDRVKHQIDPHVRIDVNGVELIGMEDWKKFLDILGVDNIQVDRYEIKDYHLVGDKATLHEHRDVKYNGVRSRHNINFVVQKIDGKWYFTEYQTE = 0.399
• TEEEEKSEHLIRLLLHILTTGDEDTYSWLLDPNAKLTFNGVEFHGREDLRRFWEEHLHRLGVDHRDIKDLKRQGDKVIIHNKIHVNGRTIHQEVEIEVINGKAKFNTVILE = 0.412
• DEIDEAIIEFFRLMLEWNETGDEEYIDTLIDPHTQLKIIYGDKDREFIGREEYFKIVLEWRIKEVRIHSIHTQGNKLNIDGEINGNIDGRDTKTRINIHFIVVNGRLKTITLRFE = 2.43
• SEEDVLHHELARIYWRDFVTGDEDSLRRLMDPEAKVNFDGRENHGREFYEEILRLFLEKFRGVRFEEHRSRFIGEFTHIDVRMHIDGKTHSLKVLVTVVNGKVHSIHIQLR = 1.26
• DEDHEIAKKASDIWWHILRTGDEDQLHKMMDPHVRTTVGDKEHHGREAVEHLTHFYKNMQIHVTHERFHVQGDKVHVEREGHLRIGDKRVEVRVRIEIHKVDGKWIIHTIEMELR = 0.425
• SEEENILEEMLKIFYESSRTGNEKTMQELFDPHARIEFEGVENIGMELAMRLTTHWRLQTVHIKDVRVIDGQIHMDGEERGVINGQEIRTEVDIISIKIDGRWLFHSKQIN = 0.369
• SDEERDSRKAEEKWIRTLETGDERIITELADPNVRLEIGDKTFHGREDFYKFMTYLTRHLRVERFEIKRFDFQGEWIHMKTHINMRVGEFSHHSDTEIVAYKVNGRWVIHNVRVE = 0.831
• DEEEHWAKEFLKIESEAMMTGDEESLIELIDPDARIQIGDKKYHGMEFVKYLFEQERKKLGIERVHVEFELKEIHYQGNYMIVDGIIRRSYGDKTETRRVIIYLIKFDGQWVIESIQFL = 0.863
• HDQDESAKWVIEVLIRASYTGDFDMFIKYFDPNAKSLIDGKTFHGREDLKRHMDRFDHITHVRFHLRDRKMVGDKLIIHGQLEVHGYQGDWEIHMTRDVHIILRKVDGRWHIEELRLE = 2.18
• DEREQEAHRAIEKFMHYVRTGNEDKLKEFLDPNALNLFDGRHDVGREDVTESMIEIMRHLGVTLHDVKITDMRTQGDYLTVNGWFNLEYDGVRDNHKVFIHSRKVDGKWIITKIDWR = 1.26
• SEHKEEIIQLAEEIFRKIVTGDWERFWELADPHVRFDVGDKTRHGREKVIEYINRFMKELRFERFHIDDIRVIDGVVVIHTKLRFRVGDFQLHHHTRHEIMMVDGRIQFLRIEWE = 0.096
• DEEDEELRRLLELLLRLYMTGDEHTLQTLADPHMKVRFHWDGREIRDHGRDALERHLKEWRVNDMDVNHFEAFNGRNMIDGILDGIINGVERRHKLELHFDLVNGRVKSVEIVLR = 1.08
• TEDEEAAERMIKTWLEKIITGNEEFLTEFMDPDTKVDINGKELHGWEDILQHLRHIRVHDMHVEIEDVRFINGVIEIRGTMHKDGEVNGRRTQTEQHVVFVLQKIDGRWRLRSYSIR = 2.27
• DHEKEVAERIMRLLFHQLETGDWRLESKMADPNVRLNFNGVHLHGMETSVKWLEELRIHSFRIRDMRIDIINGVAVADNDTETEITFDGVRIRTRTHLHIFVSKFDGRWHVSEIEIRIR = 0.094
